Taken from patent US7109236B2.

This section presents compounds with their documented pIC50 values.
test system: MCF-7 (ER+); test: MTT growth inhibition assay, MCF-7 breast cancer cells; assay type: cell-based; settings: Table 2 (repeat run with additional compounds), 8 days
pIC50: −log10 of the molar value.
quantity_measured: pIC50

INSERT INTO assay_data (compound, sign_qualifier, readout_number) VALUES
  ('COc1cc([C@H]2Oc3cc(O)cc(O)c3C[C@H]2OC(=O)c2cc(O)c(O)c(O)c2)cc(OC)c1O [SR 13915]', '<', 4.00),
  ('O=C(O[C@@H]1Cc2c(O)cc(O)cc2O[C@@H]1c1cc(O)c(O)c(O)c1)c1cc(O)c(O)c(O)c1 [EGCG, (−)-epigallocatechin-3-gallate, reference compound]', '=', 4.43),
  ('COc1cc(C(=O)O[C@@H]2Cc3c(C)cc(C)cc3O[C@@H]2c2cc(O)c(O)c(O)c2)cc(OC)c1OC [SR 13919]', '=', 5.08),
  ('COc1cc([C@H]2Oc3cc(O)cc(O)c3C[C@H]2OC(=O)c2cc(C)c(O)c(C)c2)cc(OC)c1O [SR 13920]', '=', 4.48),
  ('Cc1cc(C(=O)O[C@@H]2Cc3c(O)cc(O)cc3O[C@@H]2c2cc(C)c(O)c(C)c2)cc(C)c1O [SR 13916]', '=', 5.18),
  ('Cc1cc([C@H]2Oc3cc(O)cc(O)c3C[C@H]2OC(=O)c2cc(O)c(O)c(O)c2)cc(C)c1O [SR 13918]', '<', 4.00),
  ('Cc1cc([C@H]2Oc3cc(O)cc(O)c3CC2OC(=O)c2cc(O)c(O)c(O)c2)cc(C)c1O (stereo partly shown) [SR 13917]', '=', 5.21);
